Target: CHIKV nsP2 (Chikungunya virus; strain of the nsP2 …, UniProt Q8JUX6 536-1333)
Sequence (Q8JUX6 536-1333): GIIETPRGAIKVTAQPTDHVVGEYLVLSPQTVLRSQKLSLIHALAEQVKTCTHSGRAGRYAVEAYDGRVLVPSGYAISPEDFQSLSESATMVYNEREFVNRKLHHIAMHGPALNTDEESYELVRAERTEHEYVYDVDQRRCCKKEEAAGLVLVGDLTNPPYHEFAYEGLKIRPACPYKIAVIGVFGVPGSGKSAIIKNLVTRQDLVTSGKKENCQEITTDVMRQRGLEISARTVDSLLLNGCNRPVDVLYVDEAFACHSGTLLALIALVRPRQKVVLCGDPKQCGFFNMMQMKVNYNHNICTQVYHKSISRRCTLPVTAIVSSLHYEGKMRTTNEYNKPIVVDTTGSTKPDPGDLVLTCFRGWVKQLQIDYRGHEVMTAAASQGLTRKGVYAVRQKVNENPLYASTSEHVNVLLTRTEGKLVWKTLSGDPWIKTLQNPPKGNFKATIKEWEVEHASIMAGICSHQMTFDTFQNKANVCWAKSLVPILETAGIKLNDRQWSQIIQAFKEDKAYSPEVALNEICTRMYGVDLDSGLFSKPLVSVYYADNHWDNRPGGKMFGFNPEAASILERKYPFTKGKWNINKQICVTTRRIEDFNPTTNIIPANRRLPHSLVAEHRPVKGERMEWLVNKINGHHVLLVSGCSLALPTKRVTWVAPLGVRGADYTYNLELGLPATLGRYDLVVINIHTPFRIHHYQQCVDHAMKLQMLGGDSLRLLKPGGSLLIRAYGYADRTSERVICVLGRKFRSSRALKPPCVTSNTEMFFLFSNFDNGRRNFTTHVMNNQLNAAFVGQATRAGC
Assay: BLI
pKd: −log10 of the molar value.
property: pKd

- CCGAACCCACAGGGACGUAGGAGAUGUUAUUUUGUUUUUAAUAUUUC (ssRNA) [3NCR48]: 7.03
